# Species on record: Bos taurus
# Experiment description: Kinetic parameter in calf intestine adenosine deaminase.
# Type: ADME
# Settings: cattle, in vitro
Value type: Vmax (µM/min/mg)

>>> df
                                    molecule  value_type  value_observed
 0  Nc1ncnc2c1nnn2[C@H]1C[C@H](O)[C@@H](CO)O1        Vmax            2000
 1  Nc1nc(F)nc2c1ncn2[C@@H]1O[C@H](CO)[C@@H](O)[C@H]1O        Vmax            0.78
 2  COc1ncnc2c1ncn2[C@@H]1O[C@H](CO)[C@@H](O)[C@@H]1O        Vmax               2
 3  Nc1nc(F)nc2c1nnn2C1O[C@H](CO)[C@@H](O)[C@H]1O (stereo partly specified)        Vmax               5
 4  Nc1ncnc2c1ncn2[C@@H]1O[C@H](CO)[C@@H](O)[C@@H]1O        Vmax              94
 5  Nc1ncnc2c1nnn2[C@@H]1O[C@H](CO)[C@@H](O)[C@H]1O        Vmax            1500
 6  COc1ncnc2c1nnn2[C@@H]1O[C@H](CO)[C@@H](O)[C@H]1O        Vmax              27
 7  Nc1nc(N)c2ncn([C@@H]3O[C@H](CO)[C@@H](O)[C@H]3O)c2n1        Vmax             119
 8  Nc1ncnc2c1nnn2[C@@H]1O[C@H](CO)[C@@H](O)[C@@H]1O        Vmax              75
 9  Nc1ncnc2c1ncn2[C@@H]1O[C@H](CO)[C@@H](O)[C@H]1O        Vmax             435
10  Nc1nc(N)c2nnn([C@@H]3O[C@H](CO)[C@@H](O)[C@H]3O)c2n1        Vmax              23

Each recorded value in this set is attributed to ChEMBL document CHEMBL1122375.
